Data origin, for the record: the Human Domainome abundance scans (Beltran et al. 2025)

B1: Far upstream element-binding protein 1, residues 184 to 257; numbered along this chain, Q96AE4 (parent)
chain: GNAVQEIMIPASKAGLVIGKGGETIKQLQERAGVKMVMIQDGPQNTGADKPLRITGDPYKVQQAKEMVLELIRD

# Variants of: B1
# ASSAY EXPLANATION: abundance fitness (aPCA) (normalised: wild type 0, dead -1); higher = more abundant; growth selection in yeast, the domain comes from the species named
# RUN CONDITIONS: Homo sapiens
MEASURED ENDPOINT: abundance fitness
The response must contain the number and no unit.

# query: abundance fitness of entry GNAVQEIMIPASKAGLVIGKGGETIKQLQERAGVKMVMRQDGPQNTGADKPLRITGDPYKVQQAKEMVLELIRD
0.006

So what's the measured abundance fitness for this one? GNAVQEIMIPASKAGLVIGKGGETIKQLQERAGVKMVMMQDGPQNTGADKPLRITGDPYKVQQAKEMVLELIRD
0.014

Endpoint output: abundance fitness of GNAVQEIMIPASKLGLVIGKGGETIKQLQERAGVKMVMIQDGPQNTGADKPLRITGDPYKVQQAKEMVLELIRD . Value?
0.042

Name the recorded abundance fitness for GNAVQEIMIPASPAGLVIGKGGETIKQLQERAGVKMVMIQDGPQNTGADKPLRITGDPYKVQQAKEMVLELIRD .
-0.659

Fill blank: measured abundance fitness of the variant GNAVQEIMIPASKAGLVIGKGGETIKQLQERAGVKMVMIQDGDQNTGADKPLRITGDPYKVQQAKEMVLELIRD is ____.
-0.055

Find the recorded abundance fitness belonging to GNAVQEIMIPASKAGLVIGKGGETIKQLQESAGVKMVMIQDGPQNTGADKPLRITGDPYKVQQAKEMVLELIRD and report it.
-0.008

# get_value(readout='abundance fitness', item= GNAVQEIMIPASKAGLVIGKGGETIKQLQERAGVKMVMIQDGPQNTGADKPSRITGDPYKVQQAKEMVLELIRD )
-0.918

Can you look up the measured abundance fitness of GNAVQEIMIPASKAGLVIGKGIETIKQLQERAGVKMVMIQDGPQNTGADKPLRITGDPYKVQQAKEMVLELIRD for me?
-0.417

abundance fitness lookup needed for GNAVQEIMIPASKAGLVIGKGGETIKQLQERAGVKMVMIQDGPQNTGADKPLRITGDKYKVQQAKEMVLELIRD , thanks.
-0.016

Consider the variant shown here: GNAVQEIMIPASKAGLVIGKGGFTIKQLQERAGVKMVMIQDGPQNTGADKPLRITGDPYKVQQAKEMVLELIRD What is its recorded abundance fitness?
-0.101

GET /values?readout=abundance fitness&item= GNAVQEIMIPASKAGLVIGKGGETIKQLQERAGVKMVMIQDGPQNTGADKPLRITGDPYKVQQSKEMVLELIRD
-0.228

Would you kindly share the measured abundance fitness for GNAVQEIMIPASKAGLVIGKGGETIKQLQERAGVKMVMIQDGPQNTGADKPLRITGDPYKVQQVKEMVLELIRD ?
-0.262

Could you tell me which abundance fitness is on file for GNAVQEIMIPASKAGLVIGKGGETIKQLQERAGVKMVMIQDGPQNTGADKPLRITGDPYKVQQAYEMVLELIRD ?
-0.11

Using the record for GNAVQEIMIPASKAGLVIGKGGETIKQLQERAGVKPVMIQDGPQNTGADKPLRITGDPYKVQQAKEMVLELIRD , report its abundance fitness.
-0.789

I would be grateful if you could share the reported abundance fitness for GNAVQEIMIPASKAGLVIGKGGETIKQLQERAGVKMVMIQDGRQNTGADKPLRITGDPYKVQQAKEMVLELIRD .
-0.012

Name the recorded abundance fitness for GNAVQEIMIPASKAGLVIGKGGETIKQLQERAGVKMVMIQDGPQVTGADKPLRITGDPYKVQQAKEMVLELIRD .
-0.057

Quick one: abundance fitness for GNAVQEIMIPASKAGLVIGKGGETMKQLQERAGVKMVMIQDGPQNTGADKPLRITGDPYKVQQAKEMVLELIRD ?
0.03

I would be grateful if you could share the reported abundance fitness for GNAVQEIMIPASKAGLVIGKGGETIKQLQERAGVKMVMIQDGPQNTGADKPLRITGDPYKIQQAKEMVLELIRD .
-0.091

Would you mind telling me what abundance fitness value was observed for GNAVQEIMIPASKAGLVIGKGGETIKQLQERAGVKIVMIQDGPQNTGADKPLRITGDPYKVQQAKEMVLELIRD ?
-0.053

Request the reported abundance fitness associated with GNAVQEIMIPASKAGFVIGKGGETIKQLQERAGVKMVMIQDGPQNTGADKPLRITGDPYKVQQAKEMVLELIRD
0.003

Recorded abundance fitness for GNAVQEIMIPASKAGLVIGKGGETIKQLQERAGVKMVMIQDGPQNTGADKPLRITKDPYKVQQAKEMVLELIRD , please?
-0.942

Recorded abundance fitness of GNAVQEIMIPASKAGLVIGKGGETIKQLQERAGVKMVMIQDGPQNTGADKPLRITGDPYKVQKAKEMVLELIRD , please.
0
